Where these numbers come from: paper PMC10914731

System: M. tuberculosis H37Rv (ATCC 27294)
Experiment: microbe, parasite or virus in culture
Assay type: cell-based
Conditions: Mycobacterium tuberculosis, M. tuberculosis H37Rv strain; read-out: MIC Mtb H37Rv Mean ± SD
readout-type: MIC
Form field: result (number plus unit)

Provide the reported MIC (system: M. tuberculosis H37Rv (ATCC 27294)) for CO[C@H](c1ccccc1)[C@@H]1NC(=O)[C@H](C)NC(=O)[C@H](C[C@@H](C)CO)N(C)C(=O)[C@H](Cc2cn(C)c3ccccc23)NC(=O)[C@H](Cc2cn(CCOCCOCCn3cc(C[C@@H]4NC(=O)[C@H](CC(C)C)N(C)C(=O)[C@H](C(C)C)NC(=O)[C@H]([C@H](OC)c5ccccc5)NC(=O)[C@H](C)NC(=O)[C@H](C[C@@H](C)CO)N(C)C(=O)[C@H](Cc5cn(C)c6ccccc56)NC4=O)nn3)nn2)NC(=O)[C@H](CC(C)C)N(C)C(=O)[C@H](C(C)C)NC1=O [Compound 11] 0.1 µM
